biological target: HLA-B*15:01; assay: IEDB peptide-MHC binding, purified MHC/direct/fluorescence; filed as Kd, often an IC50 or EC50 that approximates it; bounds were set here for any values at or beyond the usual limits of such assays; settings: source organism: Brucella abortus
pKd: −log10 of the molar value.

- polymer_sequence: "SRIGAWASK"
  pKd: "≤ 4.70"

----------
biological target: HLA-A*29:02; assay: IEDB peptide-MHC binding, purified MHC/competitive/radioactivity; filed as Kd, often an IC50 or EC50 that approximates it; bounds were set here for any values at or beyond the usual limits of such assays; details: source organism: Mammarenavirus juninense
measured_quantity: Kd

- polymer_sequence: "MLMLVNDRLL"
  experimental_value: "≥ 20 µM"

----------
target: HLA-B*46:01; assay: IEDB peptide-MHC binding, purified MHC/direct/fluorescence; filed as Kd, often an IC50 or EC50 that approximates it; bounds were set here for any values at or beyond the usual limits of such assays; settings: source organism: Vibrio vulnificus CMCP6

- polymer_sequence: "MPIAAAIGT"
  tested_on: "HLA-B*46:01"
  Kd: "≥ 20 µM"

----------
molecular target: HLA-A*02:06; assay: IEDB peptide-MHC binding, purified MHC/competitive/fluorescence; filed as Kd, often an IC50 or EC50 that approximates it; bounds were set here for any values at or beyond the usual limits of such assays; settings: source organism: Yersinia pestis Nepal516

- polymer_sequence: "QWSPGPGRL"
  tested_on: "HLA-A*02:06"
  Kd: "157 nM"

----------
molecular target: HLA-B*57:01; assay: IEDB peptide-MHC binding, purified MHC/direct/fluorescence; filed as Kd, often an IC50 or EC50 that approximates it; bounds were set here for any values at or beyond the usual limits of such assays; conditions: source organism: Influenza A virus (A/duck/Hokkaido/1130/01(H1N1))
measured_quantity: Kd

- polymer_sequence: "ELRSRYWAI"
  measured_quantity: "Kd"
  experimental_value: "≥ 20 µM"

----------
molecular target: HLA-A*02:05; test: IEDB peptide-MHC binding, purified MHC/competitive/radioactivity; filed as Kd, often an IC50 or EC50 that approximates it; bounds were set here for any values at or beyond the usual limits of such assays; conditions: source organism: Homo sapiens

- polymer_sequence: "RLFPGLAIKI"
  Kd, nM: 90

----------
biological target: HLA-B*57:01; assay: IEDB peptide-MHC binding, purified MHC/competitive/radioactivity; filed as Kd, often an IC50 or EC50 that approximates it; bounds were set here for any values at or beyond the usual limits of such assays; settings: source organism: Dengue virus 3 Martinique/1243/1999
Catalogue of Kd readings, one per entry.

- polymer_sequence: "KAWMVHRQW"
  tested_on: "HLA-B*57:01"
  Kd / nM: 1.27
- polymer_sequence: "TASGINMCTL"
  tested_on: "HLA-B*57:01"
  Kd / nM: 5590

----------
Catalogue of pKd readings, one per entry.
biological target: HLA-B*08:01; test: IEDB peptide-MHC binding, purified MHC/direct/fluorescence; filed as Kd, often an IC50 or EC50 that approximates it; bounds were set here for any values at or beyond the usual limits of such assays; conditions: source organism: Influenza A virus (A/Puerto Rico/8/34/Mount Sinai(H1N1))
pKd: −log10 of the molar value.

- polymer_sequence: "IPKRNRSIL"
  pKd: 6.57
- polymer_sequence: "HFQKDAKVL"
  pKd: 5.64

----------
molecular target: HLA-A*02:02; assay: IEDB peptide-MHC binding, purified MHC/competitive/radioactivity; filed as Kd, often an IC50 or EC50 that approximates it; bounds were set here for any values at or beyond the usual limits of such assays; details: source organism: Vaccinia virus WR
// boundary case: Kd equal to 200 nM maps to NO; strictly smaller maps to YES

- polymer_sequence: "LTQVKELGIA"
  label_value: "NO"
- polymer_sequence: "VLALYSPPLI"
  label_value: "YES"
- polymer_sequence: "LIYRQLTSNV"
  label_value: "YES"
- polymer_sequence: "LVKDESIQL"
  label_value: "YES"
- polymer_sequence: "GVLHTKFWI"
  label_value: "NO"
- polymer_sequence: "TLNEYKQLYT"
  label_value: "YES"
- polymer_sequence: "DTGKKELALT"
  label_value: "NO"
- polymer_sequence: "TVPTNDHIPV"
  label_value: "NO"
- polymer_sequence: "EAFETQSGA"
  label_value: "NO"
- polymer_sequence: "TMKAIEKDRL"
  label_value: "YES"
- polymer_sequence: "KTIAVSVYGA"
  label_value: "NO"
- polymer_sequence: "GVCYYLLMHL"
  label_value: "YES"
- polymer_sequence: "ITETIPIGM"
  label_value: "NO"
- polymer_sequence: "KINEMVDELV"
  label_value: "NO"
- polymer_sequence: "IIPFIAYFVL"
  label_value: "NO"
- polymer_sequence: "DISVNASKTI"
  label_value: "NO"
- polymer_sequence: "DTLVKSGLT"
  label_value: "NO"
- polymer_sequence: "YVPSAEDNYL"
  label_value: "NO"
- polymer_sequence: "IAVITETIPI"
  label_value: "NO"
- polymer_sequence: "TIDKSSPLYI"
  label_value: "NO"

----------
target: HLA-A*11:01; test: IEDB peptide-MHC binding, purified MHC/direct/fluorescence; filed as Kd, often an IC50 or EC50 that approximates it; bounds were set here for any values at or beyond the usual limits of such assays; conditions: source organism: Pseudomonas aeruginosa
measured_quantity: Kd (µM)

- polymer_sequence: "NWDWGVFFK"
  tested_on: "HLA-A*11:01"
  measured_quantity: "Kd"
  experimental_value: 0.0673

----------
target: HLA-A*69:01; assay: IEDB peptide-MHC binding, purified MHC/direct/fluorescence; filed as Kd, often an IC50 or EC50 that approximates it; bounds were set here for any values at or beyond the usual limits of such assays; conditions: source organism: Listeria monocytogenes serotype 4b str. H7858
measured_quantity: Kd

- polymer_sequence: "FRDEAGAIL"
  measured_quantity: "Kd"
  experimental_value: "≥ 20 µM"

----------
target: HLA-A*02:01; assay: IEDB peptide-MHC binding, purified MHC/competitive/fluorescence; filed as Kd, often an IC50 or EC50 that approximates it; bounds were set here for any values at or beyond the usual limits of such assays; settings: source organism: Salmonella enterica subsp. enterica serovar Typhi
measured_quantity: Kd (nM)

- polymer_sequence: "WTFTPTTPL"
  experimental_value: 5.8

----------
target: HLA-A*02:01; assay: IEDB peptide-MHC binding, purified MHC/direct/fluorescence; filed as Kd, often an IC50 or EC50 that approximates it; bounds were set here for any values at or beyond the usual limits of such assays; details: source organism: Giardia intestinalis
measured_quantity: Kd

- polymer_sequence: "INTLESMMK"
  experimental_value: "≥ 20 µM"

----------
target: HLA-A*31:01; experiment: IEDB peptide-MHC binding, purified MHC/competitive/radioactivity; filed as Kd, often an IC50 or EC50 that approximates it; bounds were set here for any values at or beyond the usual limits of such assays; conditions: source organism: Dengue virus 1 Brazil/97-11/1997
measured_quantity: Kd (nM)

- polymer_sequence: "RFWDLVHRER"
  measured_quantity: "Kd"
  unit_tag: "nM"
  bound_type: "≥"
  experimental_value: 49800
- polymer_sequence: "ATTVITPMMR"
  measured_quantity: "Kd"
  unit_tag: "nM"
  bound_type: "="
  experimental_value: 125
- polymer_sequence: "GLLFRRLTSR"
  measured_quantity: "Kd"
  unit_tag: "nM"
  bound_type: "≥"
  experimental_value: 53700
- polymer_sequence: "KSEFNTYKR"
  measured_quantity: "Kd"
  unit_tag: "nM"
  bound_type: "="
  experimental_value: 1340

----------
Catalogue of Kd readings, one per entry.
target: HLA-A*02:01; assay: IEDB peptide-MHC binding, purified MHC/competitive/radioactivity; filed as Kd, often an IC50 or EC50 that approximates it; bounds were set here for any values at or beyond the usual limits of such assays; details: source organism: Lassa virus Josiah
measured_quantity: Kd (µM)

- polymer_sequence: "GLTYSQLMT"
  measured_quantity: "Kd"
  unit_tag: "µM"
  experimental_value: 12.5
- polymer_sequence: "LISIFLHLV"
  measured_quantity: "Kd"
  unit_tag: "µM"
  experimental_value: 0.0472
- polymer_sequence: "MTSYQYLII"
  measured_quantity: "Kd"
  unit_tag: "µM"
  experimental_value: 0.926

----------
target: HLA-A*02:16; experiment: IEDB peptide-MHC binding, purified MHC/direct/fluorescence; filed as Kd, often an IC50 or EC50 that approximates it; bounds were set here for any values at or beyond the usual limits of such assays; conditions: source organism: Orthohantavirus andesense

- polymer_sequence: "VWKQLFPEL"
  tested_on: "HLA-A*02:16"
  Kd: "≥ 20 µM"

----------
target: HLA-B*07:02; assay: IEDB peptide-MHC binding, purified MHC/direct/fluorescence; filed as Kd, often an IC50 or EC50 that approximates it; bounds were set here for any values at or beyond the usual limits of such assays; conditions: source organism: Influenza A virus (A/Hong Kong/507/97(H5N1))
pKd: −log10 of the molar value.

- polymer_sequence: "GTSKIKMKW"
  pKd: "≤ 4.70"
